The measurements presented in this section are drawn from ChEMBL document CHEMBL1201862.

- System: HOP-62
- METHOD: NCI tumour cell line growth inhibition, 48 h
Activity calls are given as the source filed them. Cut-off read from the data, not from the text of the source: active = GI50 up to about 1.1 µM and inactive = higher.
OUTCOME_MEASURE: GI50

Prompt line: Tell me reported GI50 for CCOc1ccc(NC(=O)C2=C(C)NC(C)=C(C(=O)Nc3ccc(OCC)cc3)C2c2ccc([N+](=O)[O-])cc2)cc1 , tested with HOP-62.
Response line: 36.1 µM (inactive)

Prompt line: Tell me reported GI50 for Clc1ccc(C2ON=C(c3ccccc3)N2C23CC4CC(CC(C4)C2)C3)cc1Cl (stereo not given) , tested with HOP-62.
Response line: > 10 µM (inactive)

Prompt line: Tell me reported GI50 for COC1O[C@@H]2COC(C)(C)O[C@@H]2C(=O)N1Nc1ccc([N+](=O)[O-])cc1 (stereo not given in full) , tested with HOP-62.
Response line: > 100 µM (inactive)
